test: Pharmacokinetic study (oral absorption); type: in vivo; conditions: bioavailability from AUCs of oral and intravenous administration; mouse or rat
Record true whenever BA_% is at 40% or higher; record false when lower.

molecule: COc1cnc(C(=O)Nc2ccc(F)c([C@@]3(C)N=C(N)S[C@H](C)[C@@H]3F)c2)cn1 [Compound I-8]
category-label: false

molecule: C[C@@H](F)[C@H]1OC(N)=N[C@](C)(c2cc(NC(=O)c3ccc(C#N)cn3)ccc2F)[C@H]1F [Compound I-15]
category-label: false

molecule: COc1cnc(C(=O)Nc2ccc(F)c([C@@]3(C)N=C(N)O[C@H](C(C)(F)F)[C@@H]3F)c2)cn1 [Compound I-42]
category-label: false

molecule: C[C@H]1SC(N)=N[C@](C)(c2cc(NC(=O)c3cnc(OCC(F)(F)F)cn3)ccc2F)[C@H]1F [Compound I-46]
category-label: false

molecule: C[C@]1(c2cc(NC(=O)c3ccc(C#N)cn3)ccc2F)N=C(N)O[C@H](CF)[C@@H]1OCC(F)(F)F [Compound I-10]
category-label: true

Next item in the queue.
-- ask Could you verify whether the entry C[C@H]1SC(N)=N[C@](C)(c2nc(NC(=O)c3ccc(F)cn3)ccc2F)[C@H]1F [Compound I-2] shows BA_% of no less than 40%?
-- reply true
